assay: Transactivation of PPAR expressed in HepG2 cells after 20 hrs by luminescence assay; assay type: cell-based; settings: HepG2, 20 h
measure name: EC50

>>> observed_measurement("COc1cc([C@H]2OC[C@H]3[C@@H]2CO[C@H]3c2ccc3c(c2)OCO3)cc(OC)c1O")
"6.2 µM"
>>> observed_measurement("COc1cc([C@H]2OC[C@H]3[C@@H]2CO[C@H]3c2ccc(O)c(OC)c2)ccc1O [PINORESINOL]")
"10.3 µM"
>>> observed_measurement("C=CCc1ccc(OC)c(OC)c1 [METHYLEUGENOL]")
"28 µM"
>>> observed_measurement("CC1=CC(=O)C2C(C1=O)C2(C)C (racemic)")
"> 60 µM"
>>> observed_measurement("CC=C/C=C\\CC/C=C/C=C/C(=O)NCC(C)C")
"58.6 µM"
>>> observed_measurement("COc1cc([C@H]2OC[C@@H]3[C@H]2CO[C@H]3c2ccc3c(c2)OCO3)ccc1O [PLUVIATILOL]")
"1.7 µM"
>>> observed_measurement("c1cc2c(cc1[C@H]1OC[C@H]3[C@@H]1CO[C@@H]3c1ccc3c(c1)OCO3)OCO2 [SESAMIN]")
"> 60 µM"
>>> observed_measurement("COc1ccc([C@@H](O)[C@H](O)CO)cc1OC")
"20.3 µM"
